Target: T1, regulator of proteinase B (RopB), full-length, wild type (Streptococcus pyogenes (strain …))
T1 chain: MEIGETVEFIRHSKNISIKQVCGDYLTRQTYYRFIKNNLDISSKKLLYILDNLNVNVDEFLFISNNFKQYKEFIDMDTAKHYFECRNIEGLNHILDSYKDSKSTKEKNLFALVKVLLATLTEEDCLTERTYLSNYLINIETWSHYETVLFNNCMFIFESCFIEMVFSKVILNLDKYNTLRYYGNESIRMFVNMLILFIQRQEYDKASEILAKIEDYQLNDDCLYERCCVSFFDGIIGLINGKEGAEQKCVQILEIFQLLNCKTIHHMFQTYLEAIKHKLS
Assay: FP; pH 8.5
Where no end group is shown, it is not given here. The star is where a group is joined. FITC = O=C1OC2(c3ccc(O)cc3Oc3cc(O)ccc32)c2ccc(NC(=S)*)cc21
PROPERTY_NAME: Kd (nM)
Numbers only here, please. The scale is nM.

input: State the recorded Kd for this entry: {FITC}-MWLLLLFL [synthetic SIP peptide containing fluorescein modification at its amino-terminus (FITC-SIP)]
output: 222
